# measured_target: T1, human NGF (human, UniProt P01138 122-241)
# T1 construct: also called human Nerve Growth Factor; hN
# T1 chain: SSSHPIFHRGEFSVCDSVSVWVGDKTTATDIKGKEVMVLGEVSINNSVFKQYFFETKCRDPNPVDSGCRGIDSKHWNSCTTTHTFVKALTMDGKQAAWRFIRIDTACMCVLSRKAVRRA
# test_name: SPR (Biacore T200), 100 nM mAb on NGF chip, similarity to parent mAb
experimental_endpoint: Percent Similarity Score (KD on hN) (%)

binder	endpoint_result
can9L12VH_F29A (antibody, V domains shown) VH: EVQLVESGGDLVKPGGSLRLSCVASGFTASSHGMHWVRQSPGKGLQWVAVINSGGSSTYYTDAVKGRFTISRDNAKNTVYLQMNSLRAEDTAMYYCAKESVGGWEQLVGPHFDYWGQGTLVIVSS VL: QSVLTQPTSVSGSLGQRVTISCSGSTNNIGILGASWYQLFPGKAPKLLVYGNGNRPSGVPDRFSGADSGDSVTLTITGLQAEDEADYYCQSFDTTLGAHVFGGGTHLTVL	100
can9L12VL_I31A (antibody, V domains shown) VH: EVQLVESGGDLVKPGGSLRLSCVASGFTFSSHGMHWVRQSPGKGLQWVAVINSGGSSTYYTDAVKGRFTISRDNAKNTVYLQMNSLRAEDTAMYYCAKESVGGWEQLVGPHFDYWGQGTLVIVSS VL: QSVLTQPTSVSGSLGQRVTISCSGSTNNIGALGASWYQLFPGKAPKLLVYGNGNRPSGVPDRFSGADSGDSVTLTITGLQAEDEADYYCQSFDTTLGAHVFGGGTHLTVL	11.4
can48L2VH_F113A (antibody, V domains shown, CDR scanning mutant of ZTS-842 (48L2)) VH: EVQLVESGGDLVKPGGSLRLSCVASGFTFSTYGINWVRQAPGKGLQWVAYISSGGSSTYYADPVKGRFTISRDDAKNMLYLQMNSLRAEDTAIYYCAGSRYTYAYGGGYEFHAWGQGTLVTVSS VL: QAVLNQPASVSGALGQKVTISCSGSTMDIDIFGVSWYQQLPGKAPKLLVDSDGDRPSGIPDRFSGSRSGNSGTLTITGLQAEDEADYHCQSGDSTLGALAIFGGGTHVTVL	98.5
can9L12VL_G51A (antibody, V domains shown) VH: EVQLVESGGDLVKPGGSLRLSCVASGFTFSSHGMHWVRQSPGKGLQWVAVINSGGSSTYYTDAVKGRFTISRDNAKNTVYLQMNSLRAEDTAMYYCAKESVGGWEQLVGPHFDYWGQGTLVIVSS VL: QSVLTQPTSVSGSLGQRVTISCSGSTNNIGILGASWYQLFPGKAPKLLVYANGNRPSGVPDRFSGADSGDSVTLTITGLQAEDEADYYCQSFDTTLGAHVFGGGTHLTVL	100
can48L2VL_I31A (antibody, V domains shown, CDR scanning mutant of ZTS-842 (48L2)) VH: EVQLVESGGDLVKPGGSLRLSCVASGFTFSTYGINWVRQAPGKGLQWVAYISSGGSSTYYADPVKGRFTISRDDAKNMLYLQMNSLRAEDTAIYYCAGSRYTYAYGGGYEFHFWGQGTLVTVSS VL: QAVLNQPASVSGALGQKVTISCSGSTMDIDAFGVSWYQQLPGKAPKLLVDSDGDRPSGIPDRFSGSRSGNSGTLTITGLQAEDEADYHCQSGDSTLGALAIFGGGTHVTVL	86.2
can9L12VH_V108A (antibody, V domains shown) VH: EVQLVESGGDLVKPGGSLRLSCVASGFTFSSHGMHWVRQSPGKGLQWVAVINSGGSSTYYTDAVKGRFTISRDNAKNTVYLQMNSLRAEDTAMYYCAKESVGGWEQLAGPHFDYWGQGTLVIVSS VL: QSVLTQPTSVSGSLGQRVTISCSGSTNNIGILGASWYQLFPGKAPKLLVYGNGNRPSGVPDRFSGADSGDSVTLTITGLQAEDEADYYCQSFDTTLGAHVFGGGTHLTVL	56.3
can9L12VH_F112A (antibody, V domains shown) VH: EVQLVESGGDLVKPGGSLRLSCVASGFTFSSHGMHWVRQSPGKGLQWVAVINSGGSSTYYTDAVKGRFTISRDNAKNTVYLQMNSLRAEDTAMYYCAKESVGGWEQLVGPHADYWGQGTLVIVSS VL: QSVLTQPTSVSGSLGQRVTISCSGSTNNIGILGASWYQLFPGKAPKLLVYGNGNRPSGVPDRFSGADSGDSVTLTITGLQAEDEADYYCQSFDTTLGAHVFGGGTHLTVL	8
can9L12VH_T58A (antibody, V domains shown) VH: EVQLVESGGDLVKPGGSLRLSCVASGFTFSSHGMHWVRQSPGKGLQWVAVINSGGSSAYYTDAVKGRFTISRDNAKNTVYLQMNSLRAEDTAMYYCAKESVGGWEQLVGPHFDYWGQGTLVIVSS VL: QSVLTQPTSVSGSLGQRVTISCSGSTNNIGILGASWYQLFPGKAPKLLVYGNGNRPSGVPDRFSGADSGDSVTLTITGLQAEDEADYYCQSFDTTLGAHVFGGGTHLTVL	100
can48L2VL_L96A (antibody, V domains shown, CDR scanning mutant of ZTS-842 (48L2)) VH: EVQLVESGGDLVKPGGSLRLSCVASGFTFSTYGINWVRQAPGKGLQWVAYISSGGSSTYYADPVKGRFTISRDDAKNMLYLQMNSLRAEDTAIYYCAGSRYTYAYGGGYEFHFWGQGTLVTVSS VL: QAVLNQPASVSGALGQKVTISCSGSTMDIDIFGVSWYQQLPGKAPKLLVDSDGDRPSGIPDRFSGSRSGNSGTLTITGLQAEDEADYHCQSGDSTAGALAIFGGGTHVTVL	99.9
can9L12VL_F92A (antibody, V domains shown) VH: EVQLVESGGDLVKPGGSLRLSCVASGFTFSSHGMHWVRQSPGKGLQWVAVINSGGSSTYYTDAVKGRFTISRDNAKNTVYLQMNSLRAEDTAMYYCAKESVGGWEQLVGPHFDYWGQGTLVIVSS VL: QSVLTQPTSVSGSLGQRVTISCSGSTNNIGILGASWYQLFPGKAPKLLVYGNGNRPSGVPDRFSGADSGDSVTLTITGLQAEDEADYYCQSADTTLGAHVFGGGTHLTVL	2.7
